Target: full-length hepatitis C viral protein NS3•4A (Hepatitis C virus genotype 1a)
Construct: hexa-histidine (N); made in house; host or cells: Sf9 insect cells (baculovirus, pVL1392)
Test: biochemical
Design: species or system HCV sub-type strain 1a
Details: Enzyme Assay 2 (HCV NS3 Peptide Cleavage Assay) activity, apparent Ki class
MEASURE NAME: Ki

CCC[C@H](NC(=O)[C@@H]1C[C@]2(CC(c3cccc(Cl)c3)=NO2)CN1C(=O)C(C)N1Cc2ccccc2C1=O)C(=O)C(=O)NC1CC1 (some centres unmarked)
> 500 nM
CCC[C@H](NC(=O)[C@@H]1C[C@]2(CC(c3cccc(Cl)c3)=NO2)CN1C(=O)[C@@H](NC(=O)CC1CCCCC1)C(C)(C)C)C(=O)C(=O)NCc1cc(OC)cc(OC)c1
100 to 500 nM
CCC[C@H](NC(=O)[C@@H]1C[C@]2(CC(c3cc(Cl)c4c(c3)CCCN4C)=NO2)CN1C(=O)[C@@H](NC(=O)OC(C)(C)C)C(C)(C)C)C(=O)C(=O)NC1CC1
< 100 nM
CCC[C@H](NC(=O)[C@@H]1C[C@]2(CC(c3cccc(Cl)n3)=NO2)CN1C(=O)[C@@H](NC(=O)CC1CCCCC1)C(C)(C)C)C(=O)C(=O)NC1CC1
100 to 500 nM
CCC[C@H](NC(=O)[C@@H]1C[C@]2(CC(c3cccc(Cl)c3)=NO2)CN1C(=O)[C@@H](NC(=O)CC1CC2CCC1C2)C(C)(C)C)C(=O)C(N)=O (some centres unmarked)
< 100 nM

###

Biological target: HCV NS3 protease domain (Hepatitis C virus genotype 1b)
Construct: The first 181 amino acids of NS3 (residues 1027-1207 of the viral polyprotein); hexa-histidine (C); made in house; host or cells: E. coli BL21/DE3 pLysS
Assay: biochemical
Conditions: Enzyme Assay 1 (HCV NS3 Protease Domain Peptide Cleavage Assay) activity, apparent Ki class
Catalogue of compounds with associated Ki
MEASURE NAME: Ki

CCC[C@H](NC(=O)[C@@H]1C[C@]2(CC(c3cc(Cl)c4c(c3)CCO4)=NO2)CN1C(=O)[C@@H](NC(=O)CC1CCCCC1)C(C)(C)C)C(=O)C(=O)NC1CC1 [Compound 499]
< 100 nM
CCC[C@H](NC(=O)[C@@H]1C[C@]2(CC(C(=O)NCc3ccccc3)=NO2)CN1C(=O)[C@@H](NC(=O)O[C@H]1CCOC1)C(C)(C)C)C(=O)C(=O)NC1CC1 [Compound 341]
> 500 nM
CCC[C@H](NC(=O)[C@@H]1C[C@]2(CC(c3ccc(F)c(C)c3)=NO2)CN1C(=O)[C@@H](NC(=O)CC1CCOCC1)C(C)(C)C)C(=O)C(=O)NC1CC1 [Compound 539]
100 to 500 nM
CCC[C@H](NC(=O)[C@@H]1C[C@]2(CC(c3cccc(Cl)c3)=NO2)CN1C(=O)[C@@H](NC(=O)Cc1ccc(C)c(F)c1)C(C)(C)C)C(=O)C(=O)NC1CC1 [Compound 102]
100 to 500 nM
CCC[C@H](NC(=O)[C@@H]1C[C@]2(CC(c3cccc(Cl)c3)=NO2)CN1C(=O)[C@@H](NC(=O)CC1CCCCC1)C(C)(C)C)C(=O)C(=O)NCc1ccc(-n2cccn2)cc1 [Compound 73]
> 500 nM

###

Molecular target: HCV NS3 protease domain (Hepatitis C virus genotype 1b)
Construct: The first 181 amino acids of NS3 (residues 1027-1207 of the viral polyprotein); hexa-histidine (C); made in house; host or cells: E. coli BL21/DE3 pLysS
Assay: biochemical
Conditions: Enzyme Assay 1 (HCV NS3 Protease Domain Peptide Cleavage Assay) activity, apparent Ki class
pKi: −log10 of the molar value.
Catalogue of molecules with associated pKi
MEASURE NAME: pKi

CCC[C@H](NC(=O)[C@@H]1C[C@]2(CC(C(=O)c3ccccc3)=NO2)CN1C(=O)[C@@H](NC(=O)O[C@H]1CCOC1)C(C)(C)C)C(=O)C(=O)NC1CC1 [Compound 535]
6.30 to 7.00
CCC[C@H](NC(=O)[C@@H]1C[C@]2(CC(c3cccc(Cl)c3)=NO2)CN1C(=O)[C@@H](NC(=O)C1CC=CCC1C(=O)OC)C(C)(C)C)C(=O)C(=O)NC1CC1 (stereo partly drawn) [Compound 557]
6.30 to 7.00
CCC[C@H](NC(=O)[C@@H]1C[C@]2(CC(c3c4ccccc4cc4ccccc34)=NO2)CN1C(=O)[C@@H](NC(=O)OCc1ccccc1)C(C)(C)C)C(=O)C(=O)NC1CC1 [Compound 199]
< 6.30
CCC[C@H](NC(=O)[C@@H]1C[C@]2(CC(c3ccccc3)=NO2)CN1C(=O)c1ccc[nH]1)C(=O)C(=O)NC1CC1 [Compound 584]
< 6.30
CCC[C@H](NC(=O)[C@@H]1C[C@]2(CC(c3cccc(Cl)c3)=NO2)CN1C(=O)[C@@H](NC(=O)C1(O)CCCC1)C(C)(C)C)C(=O)C(=O)NC1CC1 [Compound 20]
< 6.30
C=C[C@@H]1C[C@]1(NC(=O)[C@@H]1C[C@]2(CC(c3cccc(Cl)c3)=NO2)CN1C(=O)[C@@H](NC(=O)OC(C)(C)C)C(C)(C)C)C(=O)O [Compound 439]
< 6.30
CCC[C@H](NC(=O)[C@@H]1C[C@]2(CC(c3cccc(Cl)c3)=NO2)CN1C(=O)[C@H](Cc1csc2ccccc12)NC(=O)CC1CCCCC1)C(=O)C(=O)NC1CC1 [Compound 336]
< 6.30
CCC[C@H](NC(=O)[C@@H]1C[C@]2(CC(c3cccc(Br)c3)=NO2)CN1C(=O)[C@@H](NC(=O)OCc1ccccc1)C(C)(C)C)C(=O)C(=O)NC1CC1 [Compound 239]
6.30 to 7.00
CCC[C@H](NC(=O)[C@@H]1C[C@]2(CC(c3cccc(Cl)c3)=NO2)CN1C(=O)[C@@H](NC(=O)C1CCCCC1C(=O)N1CCCC1)C(C)(C)C)C(=O)C(=O)NC1CC1 (stereo partly drawn) [Compound 311]
< 6.30
CCC[C@H](NC(=O)[C@@H]1C[C@]2(CC(CC)=NO2)CN1C(=O)[C@@H](NC(=O)CC1CCOCC1)C(C)(C)C)C(=O)C(=O)NC1CC1 [Compound 566]
< 6.30
CCC[C@H](NC(=O)[C@@H]1C[C@]2(CC(c3cc(F)cc(C(F)(F)F)c3)=NO2)CN1C(=O)O[C@H]1CCOC1)C(=O)C(=O)NC1CC1 [Compound 348]
< 6.30
CCC[C@H](NC(=O)[C@@H]1C[C@]2(CC(c3cccc(Cl)c3)=NO2)CN1C(=O)[C@@H](NC(=O)CC1CCCCC1)C(C)(C)C)C(=O)C(=O)N1CCC[C@@H]1COC [Compound 347]
< 6.30
CCC[C@H](NC(=O)[C@@H]1C[C@]2(CC(c3cccc(Cl)c3)=NO2)CN1C(=O)[C@@H](NC(=O)OCc1ccccc1)C(C)(C)C)C(=O)C(=O)NC1CC1 [Compound 526]
6.30 to 7.00
CCC[C@H](NC(=O)[C@@H]1C[C@]2(CC(c3ccc(CC)cc3)=NO2)CN1C(=O)O[C@H]1CCOC1)C(=O)C(=O)NC1CC1 [Compound 47]
< 6.30
CCC[C@H](NC(=O)[C@@H]1C[C@]2(CC(c3cccc(Cl)c3)=NO2)CN1C(=O)[C@@H](NC(=O)CC1CCCCC1)C(C)(C)C)C(=O)C(N)=O [Compound 273]
6.30 to 7.00
CCC[C@H](NC(=O)[C@@H]1C[C@]2(CC(c3cccc(Cl)c3)=NO2)CN1C(=O)C(NS(=O)(=O)c1ccc(F)cc1)c1ccccc1)C(=O)C(=O)NC1CC1 (stereo partly drawn) [Compound 466]
< 6.30
CCC[C@H](NC(=O)[C@@H]1C[C@]2(CC(c3ccccc3)=NO2)CN1C(=O)[C@@H](NS(=O)(=O)c1cccc2ccccc12)C(C)(C)C)C(=O)C(=O)NC1CC1 [Compound 101]
< 6.30
CCC[C@H](NC(=O)[C@@H]1C[C@]2(CC(c3ccc(OC)cc3OC)=NO2)CN1C(=O)[C@@H](NC(=O)CC1CCCCC1)C(C)(C)C)C(=O)C(=O)NC1CC1 [Compound 166]
6.30 to 7.00
CN(C)C(=O)C(=O)[C@@H](CC1CCC1)NC(=O)[C@@H]1C[C@]2(CC(c3cccc(Cl)c3)=NO2)CN1C(=O)[C@@H](NC(=O)CC1CCCCC1)C(C)(C)C [Compound 188]
< 6.30
CCC[C@H](NC(=O)[C@@H]1C[C@]2(CC(c3cccc(Cl)c3)=NO2)CN1C(=O)[C@@H](NC(=O)[C@@H](CC(=O)N1CCCC1)C1CCCCC1)C(C)(C)C)C(=O)C(=O)NC1CC1 [Compound 549]
> 7.00
CCC[C@H](NC(=O)[C@@H]1C[C@]2(CC(c3cccc(Cl)c3)=NO2)CN1C(=O)[C@@H](NC(=O)CC1CCCCC1)C(C)(C)C)C(=O)C(=O)NCc1nc2ccccc2[nH]1 [Compound 567]
< 6.30
